pIC50: −log10 of the molar value.
Note to self: these compounds have pIC50 reported for HPK1 (Homo sapiens (Human)) in various publications.

Field: example entries. Status: answers known.
>>> test_value("N#Cc1cc(-c2cnc3[nH]cc(C4CC4)c3c2Cl)cc(N2CCCNC2=O)c1")
6.08
>>> test_value("CN1CCN2c3ccc(-c4n[nH]c5cc(C#N)c(-c6c(F)cc(C7CCCN7)cc6F)cc45)cc3OCC2C1 (centres unmarked)")
"≥ 8.00"
>>> test_value("COc1nc2c(cc1Nc1ncc3ccnc(N[C@@H]4CCC[C@@H]4O)c3n1)CN(C)CC2")
"> 10.00"
>>> test_value("COc1cc2c3cc1Nc1ncc(C(N)=O)c(n1)Nc1c(F)cc(cc1F)CCCCCN(CC2)C3")
8.52
>>> test_value("CN(C)CCN(C)C(=O)c1ccc(-c2n[nH]c3ncc(-c4ccc5c(c4)OCC4CN(C)CCN54)nc23)cc1 (centres unmarked)")
"≥ 8.00"

Ask: Fill in: pIC50 of COc1cc2c(cc1Nc1ncc(C(N)=O)c(Nc3ccccc3CN)n1)CN(C)CC2 is ___
Result: 8.79

Ask: # iterate: CN1CCN(c2cccc(Nc3ccc(-c4cnc5cnccn45)c4c3C(=O)NC4)n2)CC1
Result: 6.00 to 7.00

Ask: # iterate: COc1cccc(F)c1-c1nc2c(-c3ccc4c(c3)OCC3CN(C)CCN43)c[nH]c2cc1C#N (centres unmarked)
Result: 7.00 to 8.00

Ask: # iterate: CN1CCN(c2ccc(-c3n[nH]c4cc(=O)n(-c5ccccc5F)nc34)cc2)CC1
Result: ≥ 7.30
